The measured values listed here are drawn from PubChem BioAssay AID617.

Readings of IC50 for the listed compounds
# System: E. coli BW25113 ΔtolC growth inhibition, OD615
# procedureDetails: growth inhibitors of E. coli tolC mutant, dose response, strain BW25113 ΔtolC::kan (AID 617);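 also: growth read after 20 h at 37 °C with compound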

Take a look at these entries with their results.
compound | testedOn | recordedMeasurement
CCn1cc(C(=O)NC2CCCCC2C)c(=O)c2ccc(C)nc21 (stereo not given) | E. coli BW25113 ΔtolC growth inhibition, OD615 | 5.31 µM
CCCCOn1c(C)c(C(=O)OCC)c2c3nonc3ccc21 | E. coli BW25113 ΔtolC growth inhibition, OD615 | 18.4 µM
CCCOC(=O)c1ccc(-c2c(C)noc2-c2ccc(OC)cc2O)o1 | E. coli BW25113 ΔtolC growth inhibition, OD615 | 4.71 µM
O=C(Nc1cccc(C(F)(F)F)c1)N1CCC(c2nc(-c3ccc(F)cc3)no2)CC1 | E. coli BW25113 ΔtolC growth inhibition, OD615 | 3.75 µM
Cc1nc(N2CCN(Cc3ccccc3)CC2)nc2c1C(=O)CC(c1ccco1)C2 (stereo not given) | E. coli BW25113 ΔtolC growth inhibition, OD615 | 10.6 µM

Query: // returns reported IC50 for input "O=C(c1cc2nc(-c3ccco3)cc(C(F)(F)F)n2n1)N1CCN(c2ccc(F)cc2)CC1"
Result: 10.2 µM

Query: // returns reported IC50 for input CC1=CC(C)(C)N2C(=O)C3(SCC(=O)N3c3ccc(O)cc3)c3cc(C)cc1c32 (stereo not given)
Result: 11.8 µM

Query: // returns reported IC50 for input "Fc1ccc(C(c2ccc(F)cc2)N2CCN(C/C=C/c3ccccc3)CC2)cc1"
Result: 9.08 µM

Query: // returns reported IC50 for input CCCC1=C(C(=O)OCC)C(c2cc(Cl)cc(OC)c2OCC(=O)OCC)NC(=O)N1 (stereo not given)
Result: 24.5 µM

Query: // returns reported IC50 for input "Cc1c(NC(=O)Nc2ccc(Cl)c(Cl)c2)c(=O)n(-c2ccccc2)n1C"
Result: 39.6 µM
